Values compiled from the supplement of paper PMC10567573.

B1: FCHSD1 (parent)
chain: LEAAEVILEHAHRGEQTTSQVSWE

Variants of: B1
TEST: protein stability index of a GFP-peptide fusion (GPS, HEK-293T) (PSI 1-6); higher = more stable;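 also: lentivirally expressed fusions sorted by FACS into six bins by GFP to DsRed ratio, PSI derived from sequencing read proportions per bin multiplied by bin number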
MEASUREMENT CONTEXT: c terminus: a fixed tail appended
Is protein stability index at least 4? Then yes (1). If not, no (0).

See these solved cases before continuing.
- CHANGES: "S22I"
  GROUP: "yes (1)"
- CHANGES: "V6N"
  GROUP: "yes (1)"
- CHANGES: "A3G"
  GROUP: "yes (1)"
- CHANGES: "E15L"
  GROUP: "no (0)"
- CHANGES: "Q20P"
  GROUP: "yes (1)"

Is the recorded value of protein stability index equal to or greater than 4 for this variant? A4I no (0)

Then what about the variant A3R ? yes (1)

Then what about the variant H10Q ? yes (1)

Then what about the variant L1H ? yes (1)
